Recorded values, source PubChem BioAssay (NCI).

- run description: NCI Yeast Anticancer Drug Screen. Data for the mlh1 strain (AID 171);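 note: 0% = growth of vehicle-treated control cultures of the same strain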
- condition context: S. cerevisiae mlh1 strain growth inhibition; at 3.7 µM; active compounds read high
The panel holds about 79,000 compounds, 15% with a hit somewhere; the sample as a whole holds those more often.
Field: growth inhibition. Provide a value for each of the molecules that follow.
Answers are plain numbers, in %.

Supply measured growth inhibition of CC[C@@]1(OC(=O)CCC(=O)O)C(=O)OCc2c1cc1n(c2=O)Cc2cc3ccccc3nc2-1 in your reply. -7

Supply measured growth inhibition of COC(=O)CSc1nnc(CSc2ccc(Cl)cc2)n1-c1ccccc1 in your reply. -1

Supply measured growth inhibition of ClCCn1c(CCl)nc2ccc(Cl)cc21 in your reply. -31

Supply measured growth inhibition of CN(CC(=O)O)c1ccc(/C=C/c2ccnc3ccccc23)cc1 in your reply. 2

Supply measured growth inhibition of Cc1cc(O)c2c(c1O)C(=O)C13C(=C2O)C(=O)C2C(O)C1C1C(O)C3C(=O)C3=C(O)c4c(O)cc(C)c(O)c4C(=O)C321 (centres undefined) in your reply. 15

Supply measured growth inhibition of Oc1ccc(C=Nc2ccccc2O)cc1 in your reply. 45

Supply measured growth inhibition of CC(=O)N1C(=O)/C(=C\C(=O)c2ccc([N+](=O)[O-])cc2)c2ccccc21 in your reply. 14

Supply measured growth inhibition of CC1C(C#N)(C#N)C(C#N)=C(N)C1(Cl)[N+](=O)[O-] (centres undefined) in your reply. 28

Supply measured growth inhibition of CCN(CC)N=Nc1c(C(N)=O)n[nH]c1C in your reply. -6

Supply measured growth inhibition of CCOC(=O)C1=C(C)NC(C)=C(C(=O)OCC)C1c1ccccc1Cl in your reply. -31

Provide each entry's growth inhibition from the list below.
1. COc1ccc(/C(C#N)=C/c2ccc(OC)c(OC)c2)cc1
2. S=P(N1CC1)(N1CC1)N1CC1
3. S=c1cn[nH]c2ccc(Br)cc12
4. Cc1cc(C(C)(C)CC(C)(C)C)cc(O)c1O
5. Clc1nc(C(Cl)Cl)nc2sc3c(c12)CCCC3
6. COC(=O)c1ccc2c(c1)Cc1ccccc1-2
7. CN(N=O)C(=O)N[C@@H](C=O)[C@@H](O)[C@H](O)[C@H](O)CO
8. O=C1c2c(O)cccc2-c2nn(CCNCCO)c3ccc(NCCNCCO)c1c23

1: 2; 2: -1; 3: -7; 4: 20; 5: 4; 6: 9; 7: -1; 8: 7
